What pEC50 was measured for each of the following?
# system-name: ATR (Homo sapiens (Human), UniProt Q13535)
# Sequence (Q13535 whole entry): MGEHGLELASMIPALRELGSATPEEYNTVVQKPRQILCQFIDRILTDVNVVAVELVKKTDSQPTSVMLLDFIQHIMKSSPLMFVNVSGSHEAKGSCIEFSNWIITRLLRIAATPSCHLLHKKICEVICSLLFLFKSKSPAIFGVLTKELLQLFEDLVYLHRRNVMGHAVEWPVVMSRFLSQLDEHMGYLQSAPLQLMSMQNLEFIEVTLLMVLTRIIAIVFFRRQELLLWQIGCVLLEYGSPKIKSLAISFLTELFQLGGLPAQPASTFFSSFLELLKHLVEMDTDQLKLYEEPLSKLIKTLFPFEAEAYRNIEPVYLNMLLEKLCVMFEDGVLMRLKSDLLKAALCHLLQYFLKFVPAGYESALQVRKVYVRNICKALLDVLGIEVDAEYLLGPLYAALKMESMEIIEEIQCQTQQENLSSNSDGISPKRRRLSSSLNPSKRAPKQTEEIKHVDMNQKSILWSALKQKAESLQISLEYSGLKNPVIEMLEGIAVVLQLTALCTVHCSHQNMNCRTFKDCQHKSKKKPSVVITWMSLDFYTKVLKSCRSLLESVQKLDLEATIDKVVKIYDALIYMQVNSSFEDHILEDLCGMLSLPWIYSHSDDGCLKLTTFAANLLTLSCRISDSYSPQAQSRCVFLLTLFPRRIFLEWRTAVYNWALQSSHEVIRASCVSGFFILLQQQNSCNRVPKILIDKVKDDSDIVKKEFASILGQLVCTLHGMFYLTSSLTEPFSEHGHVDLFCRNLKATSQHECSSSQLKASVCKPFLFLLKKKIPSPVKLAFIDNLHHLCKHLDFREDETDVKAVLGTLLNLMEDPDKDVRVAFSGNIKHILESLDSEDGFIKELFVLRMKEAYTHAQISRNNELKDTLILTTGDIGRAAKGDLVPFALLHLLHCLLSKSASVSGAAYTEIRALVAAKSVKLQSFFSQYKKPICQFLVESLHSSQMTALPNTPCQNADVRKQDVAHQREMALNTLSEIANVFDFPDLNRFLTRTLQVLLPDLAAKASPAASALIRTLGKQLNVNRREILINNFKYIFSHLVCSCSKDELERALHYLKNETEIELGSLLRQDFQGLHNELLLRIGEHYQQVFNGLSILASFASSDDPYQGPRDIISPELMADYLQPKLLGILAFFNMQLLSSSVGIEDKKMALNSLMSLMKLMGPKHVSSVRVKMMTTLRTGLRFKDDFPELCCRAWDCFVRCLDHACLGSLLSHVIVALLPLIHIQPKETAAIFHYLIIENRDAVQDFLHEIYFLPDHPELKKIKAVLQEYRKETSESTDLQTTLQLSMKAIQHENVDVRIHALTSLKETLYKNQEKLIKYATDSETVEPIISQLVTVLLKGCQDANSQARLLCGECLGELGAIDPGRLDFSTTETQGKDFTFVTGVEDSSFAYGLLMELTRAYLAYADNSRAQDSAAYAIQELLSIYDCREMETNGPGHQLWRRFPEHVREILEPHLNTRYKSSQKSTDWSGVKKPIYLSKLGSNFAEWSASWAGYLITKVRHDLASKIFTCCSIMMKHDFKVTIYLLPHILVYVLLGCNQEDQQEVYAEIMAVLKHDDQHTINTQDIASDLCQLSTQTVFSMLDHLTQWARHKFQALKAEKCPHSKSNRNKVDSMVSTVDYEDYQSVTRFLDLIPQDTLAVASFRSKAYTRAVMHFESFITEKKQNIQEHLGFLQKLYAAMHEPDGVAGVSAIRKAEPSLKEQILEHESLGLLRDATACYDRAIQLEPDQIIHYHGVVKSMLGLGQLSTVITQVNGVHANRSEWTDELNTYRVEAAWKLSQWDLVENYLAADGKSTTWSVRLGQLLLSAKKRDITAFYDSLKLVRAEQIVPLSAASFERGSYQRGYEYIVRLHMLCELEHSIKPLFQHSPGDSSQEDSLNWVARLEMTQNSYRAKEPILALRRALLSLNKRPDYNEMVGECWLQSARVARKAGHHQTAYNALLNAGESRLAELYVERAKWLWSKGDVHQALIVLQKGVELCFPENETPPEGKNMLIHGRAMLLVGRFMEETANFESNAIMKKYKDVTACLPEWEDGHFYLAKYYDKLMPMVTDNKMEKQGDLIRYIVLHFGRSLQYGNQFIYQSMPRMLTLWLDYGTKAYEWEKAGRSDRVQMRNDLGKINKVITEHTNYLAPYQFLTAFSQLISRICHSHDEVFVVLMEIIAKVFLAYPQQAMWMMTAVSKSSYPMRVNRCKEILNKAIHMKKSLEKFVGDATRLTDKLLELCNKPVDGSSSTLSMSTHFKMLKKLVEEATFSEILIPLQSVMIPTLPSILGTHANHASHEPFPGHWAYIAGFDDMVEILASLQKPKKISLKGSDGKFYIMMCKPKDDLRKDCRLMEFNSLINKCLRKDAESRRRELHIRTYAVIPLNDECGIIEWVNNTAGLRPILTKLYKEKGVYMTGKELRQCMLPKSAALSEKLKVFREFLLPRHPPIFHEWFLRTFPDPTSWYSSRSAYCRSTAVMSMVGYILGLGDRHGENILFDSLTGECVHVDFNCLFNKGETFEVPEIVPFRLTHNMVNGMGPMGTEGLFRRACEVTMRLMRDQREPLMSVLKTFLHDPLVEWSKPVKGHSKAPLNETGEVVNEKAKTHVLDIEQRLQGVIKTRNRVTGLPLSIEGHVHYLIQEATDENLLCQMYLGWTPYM
# test-method-notes: Cellular ATR inhibition, western blot of CHK1(S345) phosphorylation in hydroxyurea treated cells
# Format: cell-based
# measurement-context: HT29 cells, hydroxyurea 2.5 mM
pEC50: −log10 of the molar value.

Worked examples, 5 compounds total:
compound | pEC50
CN1CCC(c2nc(-c3cccc4[nH]ccc34)nc3c2OCC2COCCN32)(S(C)(=O)=O)CC1 (stereo not shown) [Example 36] | < 6.00
CNc1nc2ccccc2n1-c1nc2c(c(C(C)(C)S(C)(=O)=O)n1)OCC1COCCN21 (stereo not shown) [Example 8] | > 7.00
Cc1cc2c(-c3nc4c(c(C5(S(C)(=O)=O)CC5)n3)OC[C@@H]3COCCN43)cccc2[nH]1 [Example 109] | 6.00 to 7.00
COc1cc(-c2nc3c(c(C4(S(C)(=O)=O)CCC4)n2)OC[C@@H]2COCCN32)c2cc[nH]c2c1 [Example 78] | > 7.00
CS(=O)(=O)C1(c2nc(-c3cccc4[nH]ccc34)nc3c2OC[C@@H]2COCCN32)CCOCC1 [Example 3] | > 7.00

Below are some compounds; for each one, tell me its pEC50.
1. CN(C)c1nc2ccccc2n1-c1nc2c(c(C(C)(C)S(C)(=O)=O)n1)OC[C@@H]1COCCN21 [Example 79]
2. CC1(c2nc(-c3cccc4[nH]ccc34)nc3c2OCC2COCCN32)CCCS1(=O)=O (stereo not shown) [Example 41]

["6.00 to 7.00", "6.00 to 7.00"]
